Assay: Experiments of toxicity in mice, tail vein injection
Type: in vivo
Conditions: both sexes, ICR, mouse, in vivo
Each entry below carries its reported MTD.

Below are worked cases with known answers.
{"smiles-str": "CO[C@H]1CCC[C@@H]1C#CC#Cc1ccc(C(=O)N[C@H](C(=O)NO)C(C)(C)N)cc1", "MTD": "> 100 mg/kg"}
{"smiles-str": "CC(C)(N)[C@H](NC(=O)c1ccc(C#CC#Cc2ccc(CN3CCCCC3)cc2)cc1O)C(=O)NO", "MTD": "> 100 mg/kg"}

Next compound, please.
Inquiry: Retrieve MTD measured for CC(C)(N)[C@H](NC(=O)N1CCN(C#CC#Cc2ccc([N+](=O)[O-])cc2)CC1)C(=O)NO and print it.
Reply text: > 100 mg/kg

Hello, the source for this data is patent US11827612B2, in case you need it.
